This collection of values is drawn from patent US20230271947A1.

assay: Stability investigation of crystal forms A, B, C, D and the amorphous form of the compound of formula (1) (related substances by HPLC, moisture, XRD, DSC); format: physicochemical; conditions: 60° C., closed, 10 days
In this section, each of the compounds is paired with its reported Total related %.
Reply with just the number (in %).

QUERY: Given the compound C[C@H]1CCN1c1nc(N2C[C@@H]3[C@@H](CC(=O)O)[C@@H]3C2)c2c(n1)C(F)(F)CC2 [Crystal form A] , what is its reported Total related %?
RESULT: 0.24

QUERY: Given the compound C[C@H]1CCN1c1nc(N2C[C@@H]3[C@@H](CC(=O)O)[C@@H]3C2)c2c(n1)C(F)(F)CC2 [Amorphous form] , what is its reported Total related %?
RESULT: 3.92

QUERY: Given the compound C[C@H]1CCN1c1nc(N2C[C@@H]3[C@@H](CC(=O)O)[C@@H]3C2)c2c(n1)C(F)(F)CC2 [Crystal form B] , what is its reported Total related %?
RESULT: 0.11

QUERY: Given the compound C[C@H]1CCN1c1nc(N2C[C@@H]3[C@@H](CC(=O)O)[C@@H]3C2)c2c(n1)C(F)(F)CC2 [Crystal form C] , what is its reported Total related %?
RESULT: 2.20

QUERY: Given the compound C[C@H]1CCN1c1nc(N2C[C@@H]3[C@@H](CC(=O)O)[C@@H]3C2)c2c(n1)C(F)(F)CC2 [Crystal form D] , what is its reported Total related %?
RESULT: 0.40

---

biological target: KHK-C (Homo sapiens, UniProt P50053); construct: purchased Origene TP323488; experiment: In vitro KHK kinase inhibitory activity test (ADP-Glo); format: biochemical; details: 1 nM KHK-C, 100 µM ATP, 200 µM D-Fructose
Sequence (P50053 whole entry): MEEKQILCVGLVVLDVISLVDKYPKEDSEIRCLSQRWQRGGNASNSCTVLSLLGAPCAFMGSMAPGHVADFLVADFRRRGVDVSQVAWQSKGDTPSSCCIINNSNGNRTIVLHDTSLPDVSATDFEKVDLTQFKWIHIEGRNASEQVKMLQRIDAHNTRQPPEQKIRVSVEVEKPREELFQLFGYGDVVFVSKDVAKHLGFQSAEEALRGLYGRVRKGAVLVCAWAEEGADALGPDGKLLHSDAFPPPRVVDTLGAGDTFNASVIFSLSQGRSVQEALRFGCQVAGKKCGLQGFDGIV
recordedEndpoint: IC50 (nM)
Reply with just the number (in nM).

QUERY: Given the molecule C[C@H]1CCN1c1nc(N2C[C@@H]3[C@@H](CC(=O)O)[C@@H]3C2)c2c(n1)C(F)(F)CC2 , what is its reported IC50?
RESULT: 0.82

---

In this section, each of the molecules is paired with its reported Moisture %.
assay: Stability investigation of crystal forms A, B, C, D and the amorphous form of the compound of formula (1) (related substances by HPLC, moisture, XRD, DSC); type: physicochemical; conditions: 60° C., opened, 10 days
Write the numeric value and append its unit.

molecule: C[C@H]1CCN1c1nc(N2C[C@@H]3[C@@H](CC(=O)O)[C@@H]3C2)c2c(n1)C(F)(F)CC2 [Crystal form C]
testResult: 0.08%
--
molecule: C[C@H]1CCN1c1nc(N2C[C@@H]3[C@@H](CC(=O)O)[C@@H]3C2)c2c(n1)C(F)(F)CC2 [Crystal form A]
testResult: 0.54%
--
molecule: C[C@H]1CCN1c1nc(N2C[C@@H]3[C@@H](CC(=O)O)[C@@H]3C2)c2c(n1)C(F)(F)CC2 [Crystal form D]
testResult: 0.079%
--
molecule: C[C@H]1CCN1c1nc(N2C[C@@H]3[C@@H](CC(=O)O)[C@@H]3C2)c2c(n1)C(F)(F)CC2 [Amorphous form]
testResult: 0.56%

QUERY: Given the molecule C[C@H]1CCN1c1nc(N2C[C@@H]3[C@@H](CC(=O)O)[C@@H]3C2)c2c(n1)C(F)(F)CC2 [Crystal form B] , what is its reported Moisture %?
RESULT: 0.26%
